Biological target: T1, LRRK2 RocCOR domain construct (human, UniProt Q5S007 1334-1840)
T1 construct: A second construct (residues 1293-1840, N-terminal His6-MBP) was used in certain screening experiments; not shown: N-terminal Twin-Strep-tag; C-terminal His10-tag
T1 sequence: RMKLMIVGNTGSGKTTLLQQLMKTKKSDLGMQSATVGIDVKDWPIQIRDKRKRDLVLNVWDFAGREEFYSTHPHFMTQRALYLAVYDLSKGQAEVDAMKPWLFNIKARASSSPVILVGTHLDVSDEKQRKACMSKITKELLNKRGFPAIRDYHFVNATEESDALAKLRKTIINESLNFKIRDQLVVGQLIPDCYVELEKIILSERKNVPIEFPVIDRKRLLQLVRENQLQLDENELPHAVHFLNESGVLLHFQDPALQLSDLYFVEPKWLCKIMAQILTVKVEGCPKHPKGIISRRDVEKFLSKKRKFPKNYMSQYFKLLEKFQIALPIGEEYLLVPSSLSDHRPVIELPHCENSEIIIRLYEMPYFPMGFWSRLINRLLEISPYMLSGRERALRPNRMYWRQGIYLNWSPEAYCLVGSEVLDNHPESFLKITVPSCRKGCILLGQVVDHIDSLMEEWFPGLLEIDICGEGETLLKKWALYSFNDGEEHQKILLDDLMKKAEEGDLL
Assay: ELISA, purified Nb on coated domain constructs
measurement_kind: binding result

Nb38 (CA14133) (VHH) VHH: QVQLVESGGGLVQPGGSLRLSCAASGSIRSIATSAWYRQPPGKQRELVAGISSGTTTNYADSVKGRFTISRDNAKNTVYLQMNSLKPEDTAVYYCHAWISGTWISGQGTQVTVSS	no binding
Nb36 (CA14130) (VHH) VHH: QVQLVESGGGLVQPGGSLRLSCAASGSIRSITTSAWFRQPPGKQRELVAGISSGTSTNYADSVKGRFTISRDNAKNTVYLQMNSLKPEDTAVYYCHVWISGTWYSGQGTQVTVSS	no binding
Nb37 (CA14131) (VHH) VHH: QVQLVESGGGLVQPGGSLRLSCAASGSVFSTNTMAWFRQAPGKQREWVGGITPGGFTNYINSVKGRFTISRDNANNTIYLQMSSLRPEDTAVYYCNTLSRMALWGQGTQVTVSS	no binding
